molecular target: PKC-ε (Homo sapiens); assay: PKC activation assay with purified PKC-ε isozyme (32P-phosphoprotein formation); format: biochemical; conditions: Activation of PKC-ε ÷ activation or inhibition of PKCα at 3xEC50
Decision: Specificity ε/α compared against 4; not below it gives 1 (yes), below it gives 0 (no).

{"columns": ["molecule", "assignedClass"],
 "data": [
  ["CCCCCC1CC1CC1CC1CCCCCCCC(=O)OC (stereo not drawn)", "1 (yes)"],
  ["CCCCCC1CC1CC1CC1CCCCCCCC(=O)OC1CC[C@@]2(C)C(=CC[C@H]3[C@H]4CC[C@H]([C@H](C)CCCC(C)C)[C@@]4(C)CC[C@H]32)C1 (stereo partly drawn)", "0 (no)"],
  ["CCCCCCCCC1CC1CCCCCCCCOC(=O)CCCCCCCC1CC1CC1CC1CCCCC (stereo not drawn)", "1 (yes)"],
  ["CCCCCC1CC1CC1CC1CCCCCCCC(=O)O (stereo not drawn)", "1 (yes)"],
  ["CCCCCC1CC1CC1CC1CCCCCCCC(=O)OC(C)C (stereo not drawn)", "0 (no)"],
  ["CCCCCC1CC1CC1CC1CCCCCCCC(=O)OCC (stereo not drawn)", "1 (yes)"]
]}

* * *

molecular target: PKC-ε (Homo sapiens, UniProt Q02156); experiment: PKC activation assay with purified PKC-ε isozyme (32P-phosphoprotein formation); assay type: biochemical; settings: % of control of PKCε at maximum
endpointLabel: Emax (%)

{"columns": ["molecule", "target", "reportedValue"],
 "data": [
  ["CCCCCC1CC1CC1CC1CCCCCCCC(=O)OC(C)C (centres unmarked)", "PKC-ε (Homo sapiens, UniProt Q02156)", 140],
  ["CCCCCC1CC1CC1CC1CCCCCCCC(=O)OC1CC[C@@]2(C)C(=CC[C@H]3[C@H]4CC[C@H]([C@H](C)CCCC(C)C)[C@@]4(C)CC[C@H]32)C1 (some centres unmarked)", "PKC-ε (Homo sapiens, UniProt Q02156)", 122],
  ["CCCCCC1CC1CC1CC1CCCCCCCC(=O)OC/C=C(C)/C=C/C=C(C)/C=C/C1=C(C)CCCC1(C)C (centres unmarked)", "PKC-ε (Homo sapiens, UniProt Q02156)", 129],
  ["CCCCCC1CC1CC1CC1CCCCCCCC(=O)OC(C)(C)C (centres unmarked)", "PKC-ε (Homo sapiens, UniProt Q02156)", 130],
  ["CCCCCC1CC1CC1CC1CCCCCCCC(=O)O (centres unmarked)", "PKC-ε (Homo sapiens, UniProt Q02156)", 300],
  ["CCCCCC1CC1CC1CC1CCCCCCCC(=O)OC (centres unmarked)", "PKC-ε (Homo sapiens, UniProt Q02156)", 195],
  ["CCCCCCCCC1CC1CCCCCCCCOC(=O)CCCCCCCC1CC1CC1CC1CCCCC (centres unmarked)", "PKC-ε (Homo sapiens, UniProt Q02156)", 140],
  ["CCCCCC1CC1CC1CC1CCCCCCCC(=O)OCC (centres unmarked)", "PKC-ε (Homo sapiens, UniProt Q02156)", 126]
]}

* * *

Overview of reported pEC50 across a group of molecules:
biological target: PKC-ε (Homo sapiens, UniProt Q02156); assay: PKC activation assay with purified PKC-ε isozyme (32P-phosphoprotein formation); settings: lowest concentration that activates by 50% of maximum activation
pEC50: −log10 of the molar value.

{"columns": ["molecule", "pEC50"],
 "data": [
  ["CCCCCC1CC1CC1CC1CCCCCCCC(=O)OC(C)C (centres unmarked) [DCPLA-isopropyl ester]", 10.00],
  ["CCCCCCCCC1CC1CCCCCCCCOC(=O)CCCCCCCC1CC1CC1CC1CCCCC (centres unmarked) [DCPLA-cyclopropanated oleyl ester]", 8.52],
  ["CCCCCC1CC1CC1CC1CCCCCCCC(=O)OC (centres unmarked) [DCPLA-ME, DCPLA methyl ester]", 8.52],
  ["CCCCCC1CC1CC1CC1CCCCCCCC(=O)O (centres unmarked) [DCPLA]", 6.00],
  ["CCCCCC1CC1CC1CC1CCCCCCCC(=O)OCC (centres unmarked) [DCPLA-ethyl ester]", 8.52]
]}

* * *

Biological target: UniProt:Q02156
Sequence (Q02156 1-737): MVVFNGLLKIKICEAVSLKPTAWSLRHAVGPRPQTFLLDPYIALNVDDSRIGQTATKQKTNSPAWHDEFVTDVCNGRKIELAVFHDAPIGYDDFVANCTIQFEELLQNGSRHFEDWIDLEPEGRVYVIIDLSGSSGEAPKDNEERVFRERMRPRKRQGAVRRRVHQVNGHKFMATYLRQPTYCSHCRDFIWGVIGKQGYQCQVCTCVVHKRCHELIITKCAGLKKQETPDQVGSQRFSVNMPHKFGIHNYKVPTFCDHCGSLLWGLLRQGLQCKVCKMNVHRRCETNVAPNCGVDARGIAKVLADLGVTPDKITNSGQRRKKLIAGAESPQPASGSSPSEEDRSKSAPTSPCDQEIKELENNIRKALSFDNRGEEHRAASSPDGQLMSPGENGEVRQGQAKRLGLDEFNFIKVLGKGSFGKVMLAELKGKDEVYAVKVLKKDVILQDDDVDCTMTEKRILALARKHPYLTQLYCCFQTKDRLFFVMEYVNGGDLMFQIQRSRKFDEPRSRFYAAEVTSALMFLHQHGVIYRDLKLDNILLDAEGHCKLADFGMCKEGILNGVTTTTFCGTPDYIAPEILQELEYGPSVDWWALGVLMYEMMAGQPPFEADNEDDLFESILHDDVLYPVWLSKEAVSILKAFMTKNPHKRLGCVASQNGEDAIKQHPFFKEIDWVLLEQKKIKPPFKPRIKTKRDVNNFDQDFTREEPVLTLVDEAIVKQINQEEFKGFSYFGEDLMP
Test: PKC activation assay with purified PKC-ε isozyme (32P-phosphoprotein formation)
Conditions: lowest concentration that activates by 50% of maximum activation
pEC50: −log10 of the molar value.

{"columns": ["compound", "pEC50"],
 "data": [
  ["CCCCCC1CC1CC1CC1CCCCCCCC(=O)OC1CC[C@@]2(C)C(=CC[C@H]3[C@H]4CC[C@H]([C@H](C)CCCC(C)C)[C@@]4(C)CC[C@H]32)C1 (stereo partly drawn)", 11.30],
  ["CCCCCC1CC1CC1CC1CCCCCCCC(=O)OC/C=C(C)/C=C/C=C(C)/C=C/C1=C(C)CCCC1(C)C (stereo not drawn)", 8.00],
  ["CCCCCC1CC1CC1CC1CCCCCCCC(=O)OC(C)(C)C (stereo not drawn)", 9.00]
]}

* * *

tested on: Phosphatidylserine (C2) Binding Site; assay: 3H-DCPLA-ME binding to rat brain slices with C1 and C2 competitors (film-autoradiography); conditions: 1 μM competitor, rat brain slices
This section presents compounds with their documented 3H-DCPLA-ME binding, 1 μM competitor values.

{"columns": ["compound", "3H-DCPLA-ME binding, 1 μM competitor, %"],
 "data": [
  ["CCCC(=O)O[C@@H]1[C@@H](C)[C@@]2(O)[C@@H](C=C(CO)C[C@]3(O)C(=O)C(C)=C[C@@H]23)[C@@H]2C(C)(C)[C@]12OC(=O)CCC", 81],
  ["CCCCCC1CC1CC1CC1CCCCCCCC(=O)OC (stereo not shown)", 37],
  ["CCCCCC1CC1CC1CC1CCCCCCCC(=O)O (stereo not shown)", 35],
  ["CCC/C=C/C=C/C(=O)O[C@H]1/C(=C/C(=O)OC)C[C@H]2C[C@H]([C@@H](C)O)OC(=O)C[C@H](O)C[C@@H]3C[C@H](OC(C)=O)C(C)(C)[C@](O)(C[C@@H]4C/C(=C/C(=O)OC)C[C@H](/C=C/C(C)(C)[C@]1(O)O2)O4)O3", 77]
]}

* * *

biological target: PKC-ε (Homo sapiens, UniProt Q02156); test: PKC activation assay with purified PKC-ε isozyme (32P-phosphoprotein formation); type: biochemical; details: maximum, FIG. 1, 2, 4
endpointLabel: PKC-ε activation at its peak

{"columns": ["compound", "reportedValue"],
 "data": [
  ["CCCCCCCCC1CC1CCCCCCCCOC(=O)CCCCCCCC1CC1CC1CC1CCCCC (stereo not shown) [DCPLA-cyclopropanated oleyl ester]", "140 % of control"]
]}

* * *

System: Phosphatidylserine (C2) Binding Site
Assay: 3H-DCPLA-ME binding to rat brain slices with C1 and C2 competitors (film-autoradiography)
Settings: 30 nM competitor, rat brain slices
Experimental: To determine the binding site of DCPLA-ME, ^3H-DCPLA-ME was incubated with rat brain slices in the absence and presence of known C1 and C2 competitors. […] After incubation, the slices were washed with a buffer made of 130 mM NaCl, 5 mM MgCl, 5 mM KCl, 1 mM EGTA, and 0.1% bovine serum albumin in 10 mM HEPES-NaOH, pH 7.4, dried, and analyzed with film-autoradiography.
Catalogue of 3H-DCPLA-ME binding, 30 nM competitor readings, one per entry.

{"columns": ["compound", "measurementUnits", "3H-DCPLA-ME binding, 30 nM competitor"],
 "data": [
  ["CCCC(=O)O[C@@H]1[C@@H](C)[C@@]2(O)[C@@H](C=C(CO)C[C@]3(O)C(=O)C(C)=C[C@@H]23)[C@@H]2C(C)(C)[C@]12OC(=O)CCC", "%", 100],
  ["CCCCCC1CC1CC1CC1CCCCCCCC(=O)OC (stereo not shown)", "%", 64],
  ["CCC/C=C/C=C/C(=O)O[C@H]1/C(=C/C(=O)OC)C[C@H]2C[C@H]([C@@H](C)O)OC(=O)C[C@H](O)C[C@@H]3C[C@H](OC(C)=O)C(C)(C)[C@](O)(C[C@@H]4C/C(=C/C(=O)OC)C[C@H](/C=C/C(C)(C)[C@]1(O)O2)O4)O3", "%", 100],
  ["CCCCCC1CC1CC1CC1CCCCCCCC(=O)O (stereo not shown)", "%", 86]
]}
